Taken from patent US20250388664A1.

In this section, each of the binders is paired with its reported Kd.
- SYSTEM UNDER TEST: T1, truncated cTfR1 of SEQ ID NO:123 (cynomolgus monkey, UniProt Q5RDH6 122-760 (Pongo abelii entry))
- T1 construct: also called cynomolgus TfR1
- T1 chain: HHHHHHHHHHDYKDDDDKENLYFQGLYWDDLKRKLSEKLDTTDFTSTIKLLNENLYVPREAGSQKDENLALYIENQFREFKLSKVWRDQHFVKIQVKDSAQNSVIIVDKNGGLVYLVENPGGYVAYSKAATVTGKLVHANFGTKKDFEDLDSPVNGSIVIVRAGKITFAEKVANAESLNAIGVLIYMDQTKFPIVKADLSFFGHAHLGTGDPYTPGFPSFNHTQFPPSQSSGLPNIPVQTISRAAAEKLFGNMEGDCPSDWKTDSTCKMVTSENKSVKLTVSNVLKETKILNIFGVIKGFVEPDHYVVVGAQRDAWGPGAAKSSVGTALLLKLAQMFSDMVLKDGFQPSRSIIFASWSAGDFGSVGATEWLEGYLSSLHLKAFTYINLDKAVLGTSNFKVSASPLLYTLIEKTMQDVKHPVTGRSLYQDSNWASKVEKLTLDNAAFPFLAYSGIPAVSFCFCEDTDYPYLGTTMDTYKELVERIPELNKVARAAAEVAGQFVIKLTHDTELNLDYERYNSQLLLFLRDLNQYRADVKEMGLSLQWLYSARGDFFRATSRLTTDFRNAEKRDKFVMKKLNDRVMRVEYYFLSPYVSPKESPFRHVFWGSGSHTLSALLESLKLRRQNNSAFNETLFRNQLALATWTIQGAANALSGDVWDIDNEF
- PROTOCOL DESCRIPTION: SPR, FLAG-captured TfR1, scFv injected, 1:1 fit
PROPERTY MEASURED: Kd (nM)

INSERT INTO assay_data (binder, property_measured, unit_descriptor, recorded_measurement) VALUES
  ('h26D3-HC6_DS, VL-first (scFv) scFv: DIQMTQSPSSVSASVGDRVTITCKSSQSLLYSTNQKNYLAWYQQKPGKAPKLLIYWASTRESGVPSRFSGSGSGTDFTLTISSLQPEDFATYYCQQYFIYPRTFGCGTKVEIKGGGGSGGGGSGGGGSGGGGSEVQLVQSGAEVKKPGSSVKVSCKASGYIFTDYNMDWVRQAPGQCLEWIGDINPDADTTSYNEKFKGRATLTVDKSTSTAYMELSSLRSEDTAVYYCARGGYSGSSYYHPMDYWGQGTLVTVSS', 'Kd', 'nM', 246),
  ('h26D3 HC6 DS V11R T91A (scFv, also called h26D3 DS V11R T91A) scFv: HHHHHHGGGGSGGGGSGGGGSGGGGSDIQMTQSPSSVSASVGDRVTITCKSSQSLLYSTNQKNYLAWYQQKPGKAPKLLIYWASTRESGVPSRFSGSGSGTDFTLTISSLQPEDFATYYCQQYFIYPRTFGCGTKVEIKGGGGSGGGGSGGGGSGGGGSEVQLVQSGAERKKPGSSVKVSCKASGYIFTDYNMDWVRQAPGQCLEWIGDINPDADTTSYNEKFKGRATLTVDKSTSTAYMELSSLRSEDAAVYYCARGGYSGSSYYHPMDYWGQGTLVTVSS', 'Kd', 'nM', 206),
  ('h26D3 HC6 DS V11R T120K (scFv, also called h26D3 DS V11R T120K) scFv: HHHHHHGGGGSGGGGSGGGGSGGGGSDIQMTQSPSSVSASVGDRVTITCKSSQSLLYSTNQKNYLAWYQQKPGKAPKLLIYWASTRESGVPSRFSGSGSGTDFTLTISSLQPEDFATYYCQQYFIYPRTFGCGTKVEIKGGGGSGGGGSGGGGSGGGGSEVQLVQSGAERKKPGSSVKVSCKASGYIFTDYNMDWVRQAPGQCLEWIGDINPDADTTSYNEKFKGRATLTVDKSTSTAYMELSSLRSEDTAVYYCARGGYSGSSYYHPMDYWGQGTLVKVSS', 'Kd', 'nM', 201),
  ('h26D3 HC6 DS S16E L118S (scFv, also called h26D3 DS S16E L118S) scFv: HHHHHHGGGGSGGGGSGGGGSGGGGSDIQMTQSPSSVSASVGDRVTITCKSSQSLLYSTNQKNYLAWYQQKPGKAPKLLIYWASTRESGVPSRFSGSGSGTDFTLTISSLQPEDFATYYCQQYFIYPRTFGCGTKVEIKGGGGSGGGGSGGGGSGGGGSEVQLVQSGAEVKKPGESVKVSCKASGYIFTDYNMDWVRQAPGQCLEWIGDINPDADTTSYNEKFKGRATLTVDKSTSTAYMELSSLRSEDTAVYYCARGGYSGSSYYHPMDYWGQGTSVTVSS', 'Kd', 'nM', 261),
  ('h26D3 HC6 DS L118S (scFv, also called h26D3 DS L118S) scFv: HHHHHHGGGGSGGGGSGGGGSGGGGSDIQMTQSPSSVSASVGDRVTITCKSSQSLLYSTNQKNYLAWYQQKPGKAPKLLIYWASTRESGVPSRFSGSGSGTDFTLTISSLQPEDFATYYCQQYFIYPRTFGCGTKVEIKGGGGSGGGGSGGGGSGGGGSEVQLVQSGAEVKKPGSSVKVSCKASGYIFTDYNMDWVRQAPGQCLEWIGDINPDADTTSYNEKFKGRATLTVDKSTSTAYMELSSLRSEDTAVYYCARGGYSGSSYYHPMDYWGQGTSVTVSS', 'Kd', 'nM', 243);
